Here, each record is paired with measured T/C data.
# Test system: BDF1 mice, B16 melanoma ip, median survival T/C
# test description: NCI In Vivo Anticancer Drug Screen. Data for tumor model B16 Melanoma (intraperitoneal) in B6D2F1 (BDF1) mice
# measurement parameters: endpoint: median survival time; dose: 100.0 mg/kg/injection; schedule: Q01DX009 (ip); vehicle: Klucel (hydroxypropylcellulose) (HPC); higher = longer survival
# Procedure: The antitumor activity of compounds was measured in mice bearing transplantable tumors. Survival or tumor size were measured and the results are expressed as the measurement made in the treated group (T) divided by the measurement made in the vehicle treated control group (C). The tumor model used in this assay is B16 Melanoma (intraperitoneal) in B6D2F1 (BDF1) mice
Inconclusive results and toxic doses are left out.

# compound, T/C
measured = [
    ("CCCCCCCC(=O)CCCC", "106 % of control"),
    ("COc1ccccc1NC(=O)Nc1ccccc1", "104 % of control"),
    ("Cc1cc(Cl)ccc1NC(=O)c1ccccc1C(=O)O", "96 % of control"),
]

Can you share its T/C? I mean this compound: "O=C(O)C1c2ccccc2Cc2ccccc21"
100 % of control

Item "C(=N\OCc1ccccc1)/c1ccccn1" has what recorded T/C?
101 % of control

// query T/C value for entry CCC1CCCCC1(O)CC (configuration not stated)
99 % of control

Item under review: "CCN(C(=O)c1ccc(C(=O)N(CC)c2ccccc2)cc1)c1ccccc1" . Reported T/C?
114 % of control

Return reported T/C; argument: CCC1OC(=O)CC(O)C(C)C(OC2OC(C)CC(N(C)C)C2O)C(CC=O)CC(C)C(=O)/C=C/C2(C)OC2C1C (configuration not stated)
92 % of control

# get_value(readout='T/C', item= "Nc1ncnc2sc3c(c12)CCCC3" )
100 % of control

Consider the compound CCOC(=O)C(Cl)CCl (configuration not stated) and give its measured T/C.
100 % of control

What T/C value was documented for this compound, COc1ccc(C(CC(=O)c2ccc3c(c2)OCO3)C(=O)O)cc1OC (configuration not stated) ?
96 % of control

Consider the compound C[C@@H]1C[C@@]2(C)[C@@H](CC[C@@H]3[C@@H]2CC[C@]2(C)[C@@H](OC4CCCCO4)CC[C@@H]32)CC1=O (some centres not stated) and give its measured T/C.
100 % of control

----------
# Test system: BDF1 mice, B16 melanoma ip, median survival T/C
# test description: NCI In Vivo Anticancer Drug Screen. Data for tumor model B16 Melanoma (intraperitoneal) in B6D2F1 (BDF1) mice
# measurement parameters: endpoint: median survival time; dose: 100.0 mg/kg/injection; schedule: Q01DX009 (ip); vehicle: saline; higher = longer survival
Toxic doses and inconclusive results are not listed. Numbered stars: 1 amine (or outer) side, 2 acyl side, 3 side chain; on linkers, the order of the positions; unused ones are H or OH. Peptide text beside a SMILES is read from it. ξ: configuration not given here. ξγGlu = O=C(O)C(CCC(=O)[*:2])N[*:1]
result type: T/C

# compound, T/C
data = [
    ("CC(=N/NC(N)=S)/C(C)=N/NC(N)=S", "118 % of control"),
    ("Nc1ncnc(N)c1N=O", "115 % of control"),
    ("CN(C)CCCC#N", "100 % of control"),
    ("C[N+](C)(C)CC(=O)[O-]", "101 % of control"),
    ("O=P(O)(O)OCC(O)CCl (centres undefined)", "103 % of control"),
    ("CC(NC(=O)C(N)CCC(=O)O)C(=O)O (centres undefined)", "90 % of control"),
    ("CN(C)CCC1CCCCN1 (centres undefined)", "100 % of control"),
    ("C[N+](C)(C)c1ncnc2nc[nH]c12", "103 % of control"),
]

Lookup: T/C / BDF1 mice, B16 melanoma ip, median survival T/C / "CCCCCCCCCCCCCCCCCCNC(=S)N/N=C/c1ccc(Cl)cc1Cl"
87 % of control

Return T/C measured with BDF1 mice, B16 melanoma ip, median survival T/C given this compound: NC(CCC(=O)NCC(=O)NCC(=O)O)C(=O)O (stereo not drawn) (ξγGlu-Gly-Gly-OH)
97 % of control

Please tell me: T/C of "CC(=O)OCCC/C(=C\c1ccc2ccccc2c1)[N+](=O)[O-]" , system BDF1 mice, B16 melanoma ip, median survival T/C?
93 % of control

Lab note: need T/C with BDF1 mice, B16 melanoma ip, median survival T/C for entry "CCOC(=O)CCc1ccc(O)c(O)c1" , please look it up.
110 % of control

Hi! What's the reported T/C for "COc1ccc(N=O)c(O)c1" on BDF1 mice, B16 melanoma ip, median survival T/C?
90 % of control

// lookup T/C | system=BDF1 mice, B16 melanoma ip, median survival T/C | key= CNC1C(O)C(NC)C2OC3(O)C(=O)CC(C)OC3OC2C1O (centres undefined)
109 % of control

----------
# Test system: BDF1 mice, B16 melanoma ip, median survival T/C
# test description: NCI In Vivo Anticancer Drug Screen. Data for tumor model B16 Melanoma (intraperitoneal) in B6D2F1 (BDF1) mice
# measurement parameters: endpoint: median survival time; dose: 6.25 mg/kg/injection; schedule: Q01DX009 (ip); vehicle: Klucel (hydroxypropylcellulose) (HPC); higher = longer survival
Toxic doses and inconclusive results are not listed.
The entries below come with measured T/C values attached.

# compound, result type, reported value
rows = [
    ("CC(C)=CC(=O)OC1C2C(C)C(=O)OC2C(O)C(C)C2C=CC(=O)C21C (centres undefined)", "T/C", "95 % of control"),
    ("N=C(N)c1nn(C2OC(CO)C(O)C2O)c2ncnc(N)c12 (centres undefined)", "T/C", "102 % of control"),
    ("COc1c2ccoc2nc2c(OC)c3c(cc12)OCO3", "T/C", "89 % of control"),
    ("Clc1cc(CBr)c(Cl)c(Cl)c1CBr", "T/C", "94 % of control"),
    ("C[N+](C)(C)Cc1ccccc1", "T/C", "109 % of control"),
    ("O=C1C2(Cl)C3(Cl)C4(Cl)C(Cl)(Cl)C5(Cl)[C@]3(Cl)C1(Cl)[C@]5(Cl)C24Cl (some centres undefined)", "T/C", "105 % of control"),
    ("CC1(C)N=C(N)N=C(N)N1c1cc(Cl)ccc1Cl", "T/C", "94 % of control"),
    ("OC(CCN1CCCC1)(c1ccccc1)C1CCCCC1 (centres undefined)", "T/C", "101 % of control"),
]

Turning to the following compound.
T/C for CC(Cc1ccccc1)NC(C#N)c1ccccc1 (centres undefined) ?
100 % of control

----------
# Test system: BDF1 mice, B16 melanoma ip, median survival T/C
# test description: NCI In Vivo Anticancer Drug Screen. Data for tumor model B16 Melanoma (intraperitoneal) in B6D2F1 (BDF1) mice
# measurement parameters: endpoint: median survival time; dose: 12.5 mg/kg/injection; schedule: Q01DX009 (ip); vehicle: saline; higher = longer survival
Inconclusive results and toxic doses are left out.
Measured T/C, listed per entry.

Below are worked cases with known answers.
# molecule, T/C
rows = [
    ("O=[N+]([O-])O.[Cu+2].[NH-]CC[NH-].[NH-]CC[NH-]", "87 % of control"),
    ("C=CCOCC(O)CNCCCOC (stereo not drawn)", "98 % of control"),
    ("CC(=O)OCC1OC(n2ccc(N)nc2=O)C(OC(C)=O)C1OC(C)=O (stereo not drawn)", "105 % of control"),
]

Consider the molecule shown here: "CCN(CC)CCOC(=O)c1ccc(NC(=O)Nc2ccc(C(=O)OCCN(CC)CC)cc2)cc1" What is its recorded T/C?
88 % of control

Entry "CCNCCCN" has what T/C?
102 % of control

Need T/C, item "CNCCCN(C)CCCNC"
109 % of control

----------
# System: BDF1 mice, B16 melanoma ip, median survival T/C
# test description: NCI In Vivo Anticancer Drug Screen. Data for tumor model B16 Melanoma (intraperitoneal) in B6D2F1 (BDF1) mice
# measurement parameters: endpoint: median survival time; dose: 12.5 mg/kg/injection; schedule: Q01DX009 (ip); vehicle: water
Toxic doses and inconclusive results are not listed. The calls were made as follows: active = survival T/C of 150% or more; inactive = T/C below 125% in these data.
Your answer must be one of the following: active, inactive

# compound, target of assay, category
rows = [
    ("Nc1ncnc2c1ncn2C1OC(COP(=O)(O)O)C(O)C1O (centres undefined)", "BDF1 mice, B16 melanoma ip, median survival T/C", "inactive"),
    ("COc1cccc2c1C(=O)c1c(O)c3c(c(O)c1C2=O)C[C@@](O)(/C(C)=N/NC(=O)c1ccc(S(N)(=O)=O)cc1)C[C@@H]3OC1CC(N)C(O)C(C)O1 (some centres undefined)", "BDF1 mice, B16 melanoma ip, median survival T/C", "active"),
    ("OCC1OC(n2nnc3cc[nH]c(=S)c32)C(O)C1O (centres undefined)", "BDF1 mice, B16 melanoma ip, median survival T/C", "inactive"),
]

In the following, a different compound is considered.
Please let me know the test result on file for CN1N=C(N)c2cn(C3OC(COP(=O)(O)O)C(O)C3O)c3ncnc1c23 (centres undefined) .
inactive
